assay: melting temperature; fluorescence melt of hairpins on a sequencing array, two-state fit, raised by 9.35 °C to match UV melts; conditions: sodium 0.088 M
Please note: Y applies when Tm is 50 °C or greater, and N applies otherwise.

Query: Textbook exercise: given the entry GAAAGCGAAAGCTACTTC ((((((....)))..))) , state whether its Tm is greater than or equal to 50 °C.
Response: N

Query: Textbook exercise: given the entry AGTAACTGAAAAGTTACT (((((((....))))))) , state whether its Tm is greater than or equal to 50 °C.
Response: Y

Query: Textbook exercise: given the entry GATCGAGGCCTCGATC ((((((....)))))) , state whether its Tm is greater than or equal to 50 °C.
Response: Y

Query: Textbook exercise: given the entry GTCAACGAAAGTTGTGAC ((((((....)))..))) , state whether its Tm is greater than or equal to 50 °C.
Response: N

Query: Textbook exercise: given the entry GAGCCGACGAAAGTCCTC (((..(((....)))))) , state whether its Tm is greater than or equal to 50 °C.
Response: N

Query: Textbook exercise: given the entry GATACCGGAAACGGTACC (.(((((....))))).) , state whether its Tm is greater than or equal to 50 °C.
Response: N

Query: Textbook exercise: given the entry GATAGCGAAAGCTCAATC ((((((....)))..))) , state whether its Tm is greater than or equal to 50 °C.
Response: N

Query: Textbook exercise: given the entry GATCACTCTTGTGATC ((((((....)))))) , state whether its Tm is greater than or equal to 50 °C.
Response: Y

Query: Textbook exercise: given the entry CGACCGGAAACGGATTCG ((((((....)))..))) , state whether its Tm is greater than or equal to 50 °C.
Response: N

Query: Textbook exercise: given the entry GATCCACTAGTGGATC ((((((....)))))) , state whether its Tm is greater than or equal to 50 °C.
Response: Y
